assayedSystem: human GLP-1 receptor (human, UniProt P43220)
protocolDetails: cell-based or functional assay
Returns one of true or false; true when GLP-1 receptor activation relative to Val^8-GLP-1(7-37)OH is >= 3 relative potency.

query: Is reported GLP-1 receptor activation relative to Val^8-GLP-1(7-37)OH greater than or equal to 3 relative potency here: HVEGTFTSDLSSYLEGQAAKEFIAWLVKGRG [Val^8-Leu^16-GLP-1(7-37)OH]
result: false

query: Follow-up item: HVEGTFTSDWSSYLEEQAVKEFIAWLVKGRG [Val^8-Trp^16-Glu^22-Val^25-GLP-1(7-37)OH]
result: true

query: Follow-up item: HVEGTYTSDVSSYLEEQAAKEFIAWLVKGRG [Val^8-Tyr^12-Glu^22-GLP-1(7-37)OH]
result: false

query: Follow-up item: HVEGTWTSDVSSYLEEQAAKEFIAWLVKGRG [Val^8-Trp^12-Glu^22-GLP-1(7-37)OH]
result: false

query: Follow-up item: HVEGTFTSDVSKYLEEQAAKEFIAWLVKGRG [Val^8-Lys^18-Glu^22-GLP-1(7-37)OH]
result: false

query: Follow-up item: HVEGTFTSDLSSYLEEQAAKEFIAWLVKGRG [Val^8-Leu^16-Glu^22-GLP-1(7-37)OH]
result: true

query: Follow-up item: HVEGTFTSDVSFYLEEQAAKEFIAWLVKGRG [Val^8-Phe^18-Glu^22-GLP-1(7-37)OH]
result: false
